# Test system: WI-38 cells
# Protocol Notes: Long-term effects on cell viability (5 days, ATP; morphology, PI imaging)
# Format: cell-based
# Condition Set: human, 5 days, 10 μM
Observable: Q = Potential toxicity
Give bare numbers.

O=C(Nc1cccc(Cl)c1)c1ccc([N+](=O)[O-])o1 ... 0
COC(=O)CCc1sc2c(c1[N+](=O)[O-])NC(=O)CCC2 ... 0
O=C1NCCCc2cc(Cl)sc21 ... 0
Cc1ccc(S(=O)(=O)Nc2cccc3cccnc23)cc1 ... 1

Dear reader, for each entry below, please note its Q = Potential toxicity.
1. CCc1ccc(Oc2nc3ccccn3c(=O)c2/C=C(\C#N)C(=O)NC2CCCCC2)cc1
2. O=C(Nc1cc(C(F)(F)F)ccc1Cl)c1ccc([N+](=O)[O-])o1
3. COc1cccc(/C=C2\CN(C)C/C(=C\c3cccc(OC)c3OC)C2=O)c1OC

[0, 0, 1]

Dear reader, for each entry below, please note its Q = Potential toxicity.
1. O=C(NCc1cccnc1)/C(=C\c1cccc(Oc2ccccc2)c1)S(=O)(=O)c1ccccc1
2. NS(=O)(=O)c1ccc(NC(=O)c2ccc([N+](=O)[O-])o2)cc1
3. O=C(/C=C/c1cn(-c2ccccc2)nc1-c1cccnc1)c1ccccc1
4. Cc1ccc(NC(=O)c2ccc([N+](=O)[O-])o2)cc1C
5. O=C(Nc1nc(C23CC4CC(CC(C4)C2)C3)cs1)C(c1ccccc1)c1ccccc1

1: 1; 2: 0; 3: 0; 4: 1; 5: 0

Dear reader, for each entry below, please note its Q = Potential toxicity.
1. CCc1ccc(Oc2nc3ccccn3c(=O)c2/C=C(\C#N)C(=O)NCc2ccco2)cc1
2. O=C(c1ccc([N+](=O)[O-])o1)N1CCc2ccccc21

[0, 0]

Dear reader, for each entry below, please note its Q = Potential toxicity.
1. Cc1cc(N)n(-c2ccccc2C(=O)O)n1
2. CCCN1C/C(=C\c2ccc(F)cc2)C(=O)/C(=C/c2ccc(F)cc2)C1
3. O=C(/C(=C/c1ccc(Cl)cc1)c1nc2ccccc2[nH]1)c1ccccc1
4. N=C1S/C(=C\c2cn(-c3ccccc3)nc2-c2cccs2)C(=O)N1c1nccs1
5. Nc1ccccc1S(=O)(=O)Nc1cccc2cccnc12

[0, 0, 0, 1, 1]

###

# Test system: WI-38 cells
# Protocol Notes: Long-term effects on cell viability (5 days, ATP; morphology, PI imaging)
# Format: cell-based
# Condition Set: Batch 1; 10 μM; day-1; n = 6; day-0 luminescence = 320956 ± 24708
Observable: Luminescence signal for ATP measurement, day-1 Average
One number for each entry.

// solved cases for Luminescence signal for ATP measurement, day-1 Average follow
Cc1cc(N)n(-c2ccccc2C(=O)O)n1 ... 581273
COc1ccc(/C=C2\SC(=N)N(c3nccs3)C2=O)cc1 ... 460366
O=C(/C=C/c1cn(-c2ccccc2)nc1-c1cccnc1)c1ccccc1 ... 467756
CNC(=O)/C(C#N)=C/c1c(Oc2ccc(C(C)(C)C)cc2)nc2ccccn2c1=O ... 498641
CCc1ccc(Oc2nc3ccccn3c(=O)c2/C=C(\C#N)C(=O)NC2CCCCC2)cc1 ... 527000
O=C(Nc1cc(C(F)(F)F)ccc1Cl)c1ccc([N+](=O)[O-])o1 ... 442035

// lookup Luminescence signal for ATP measurement, day-1 Average for O=C(Nc1cccc(Cl)c1)c1ccc([N+](=O)[O-])o1
396843
